biological target: HCV RdRp NS5B d21BK (NS5B from the BK strain, genotype 1b) (Hepatitis C virus genotype 1b); construct: NS5B from the BK strain (genotype 1b) is expressed in E coli as a protein in which the 21 C-terminal amino acids are replaced; assay: Hepatitis C polymerase inhibition assay, radioactive nucleotide incorporation with filter capture
Sequence (P26663 2420-2989): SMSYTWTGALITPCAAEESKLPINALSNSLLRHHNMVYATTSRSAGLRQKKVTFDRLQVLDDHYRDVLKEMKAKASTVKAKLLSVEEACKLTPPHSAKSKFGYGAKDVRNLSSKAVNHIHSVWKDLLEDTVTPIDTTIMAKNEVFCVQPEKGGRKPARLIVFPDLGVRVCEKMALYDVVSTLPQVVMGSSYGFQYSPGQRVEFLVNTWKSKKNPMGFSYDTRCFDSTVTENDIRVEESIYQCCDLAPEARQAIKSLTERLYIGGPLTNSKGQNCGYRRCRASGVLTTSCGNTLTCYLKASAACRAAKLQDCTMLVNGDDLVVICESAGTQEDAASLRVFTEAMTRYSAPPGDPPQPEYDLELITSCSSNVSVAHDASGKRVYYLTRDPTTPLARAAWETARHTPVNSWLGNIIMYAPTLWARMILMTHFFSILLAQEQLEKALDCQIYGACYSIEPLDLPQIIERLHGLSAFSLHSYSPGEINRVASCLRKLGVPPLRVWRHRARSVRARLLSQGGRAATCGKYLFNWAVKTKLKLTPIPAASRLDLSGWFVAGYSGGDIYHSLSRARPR
Hi! Just check whether IC50 is below 5 µM. Below gives label 1, equal or above gives label 0.

[
  {
    "Molecule": "CCCCC1(C(=O)O)CCc2c1[nH]c1c(C)cc(F)c(Br)c21 (centres unmarked) [Example 6]",
    "Discrete label": "label 1"
  },
  {
    "Molecule": "C=CCC1(CC(=O)O)CCCc2c1[nH]c1c(C#N)ccc(C#N)c21 (centres unmarked) [Example 34]",
    "Discrete label": "label 1"
  },
  {
    "Molecule": "CCCCC1(C(=O)O)CCc2c1[nH]c1c(C)cc(F)cc21 (centres unmarked) [Example 7]",
    "Discrete label": "label 0"
  },
  {
    "Molecule": "C=CCC1(C(=O)O)CCc2c1[nH]c1c(C)ccc(Br)c21 (centres unmarked) [Example 8]",
    "Discrete label": "label 0"
  },
  {
    "Molecule": "CCCCC1(C(=O)O)CCc2c1[nH]c1c(F)ccc(C#N)c21 (centres unmarked) [Example 16]",
    "Discrete label": "label 0"
  }
]
